# Measured Target: Glucocorticoid receptor (Homo sapiens)
# Measurement Context: MDA-kb2
# Description: Agonist activity at glucocorticoid receptor in human MDA-kb2 cells assessed as stimulation of luciferase activity by luciferase reporter gene assay
Quantity: log10(EC150) (log10 of the value in µM)
Remember, log10 of EC150, in µM.

Here are 2 compounds together with their reported answers.
O=c1c(-c2ccc(O)cc2)coc2cc(O)ccc12 [DAIDZEIN]; 1.00
O=c1cc(-c2ccccc2)oc2ccc(O)cc12 [6-HYDROXYFLAVONE]; 0.85

The measured log10(EC150) associated with COc1cc(O)c2c(=O)c(-c3ccc(O)cc3)coc2c1 [PRUNETIN] reads 0.51

###

Some compounds, each annotated with its measured pIC50.
# Measured Target: Androgen receptor (Homo sapiens, UniProt P10275)
# Sequence (P10275 whole entry): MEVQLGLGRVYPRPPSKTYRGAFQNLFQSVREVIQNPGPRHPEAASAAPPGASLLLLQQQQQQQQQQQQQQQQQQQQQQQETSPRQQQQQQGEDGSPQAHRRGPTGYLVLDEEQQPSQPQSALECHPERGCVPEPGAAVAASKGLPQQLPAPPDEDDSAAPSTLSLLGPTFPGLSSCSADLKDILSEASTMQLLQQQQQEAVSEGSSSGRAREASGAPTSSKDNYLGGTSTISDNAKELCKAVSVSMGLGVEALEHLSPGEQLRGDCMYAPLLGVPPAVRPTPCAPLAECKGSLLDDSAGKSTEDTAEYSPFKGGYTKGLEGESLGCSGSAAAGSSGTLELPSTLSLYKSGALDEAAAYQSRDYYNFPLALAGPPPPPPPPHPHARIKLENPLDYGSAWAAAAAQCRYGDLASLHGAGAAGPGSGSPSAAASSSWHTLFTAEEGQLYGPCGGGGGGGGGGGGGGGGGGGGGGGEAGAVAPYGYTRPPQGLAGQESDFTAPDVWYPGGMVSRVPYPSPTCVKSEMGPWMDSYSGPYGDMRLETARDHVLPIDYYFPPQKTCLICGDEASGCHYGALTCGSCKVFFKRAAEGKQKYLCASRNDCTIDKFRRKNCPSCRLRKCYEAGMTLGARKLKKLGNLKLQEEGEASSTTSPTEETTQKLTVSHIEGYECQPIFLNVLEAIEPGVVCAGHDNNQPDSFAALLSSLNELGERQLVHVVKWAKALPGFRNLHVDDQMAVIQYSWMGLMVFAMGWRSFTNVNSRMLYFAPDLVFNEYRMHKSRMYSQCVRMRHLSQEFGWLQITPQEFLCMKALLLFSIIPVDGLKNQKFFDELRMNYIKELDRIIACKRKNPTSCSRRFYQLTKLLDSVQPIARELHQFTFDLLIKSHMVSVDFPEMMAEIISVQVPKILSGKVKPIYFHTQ
# Assay Overview: Antagonist activity at androgen receptor in human MDA-kb2 cells assessed as inhibition of DHT-induced luciferase activity by luciferase reporter gene assay
Keep in mind that pIC50 stands for -log10 of concentration in molar terms.

COc1ccc2c(c1)C(=O)CC(c1ccccc1)O2 (stereo not drawn); 4.40

The measured pIC50 associated with O=c1c(-c2ccc(O)cc2)coc2cc(O)cc(O)c12 reads 2.89

The measured pIC50 associated with O=C1CC(c2ccccc2)Oc2ccc(O)cc21 (stereo not drawn) reads 5.48
